- tested target: human NAMPT (Homo sapiens, UniProt P43490)
- Sequence (P43490 whole entry): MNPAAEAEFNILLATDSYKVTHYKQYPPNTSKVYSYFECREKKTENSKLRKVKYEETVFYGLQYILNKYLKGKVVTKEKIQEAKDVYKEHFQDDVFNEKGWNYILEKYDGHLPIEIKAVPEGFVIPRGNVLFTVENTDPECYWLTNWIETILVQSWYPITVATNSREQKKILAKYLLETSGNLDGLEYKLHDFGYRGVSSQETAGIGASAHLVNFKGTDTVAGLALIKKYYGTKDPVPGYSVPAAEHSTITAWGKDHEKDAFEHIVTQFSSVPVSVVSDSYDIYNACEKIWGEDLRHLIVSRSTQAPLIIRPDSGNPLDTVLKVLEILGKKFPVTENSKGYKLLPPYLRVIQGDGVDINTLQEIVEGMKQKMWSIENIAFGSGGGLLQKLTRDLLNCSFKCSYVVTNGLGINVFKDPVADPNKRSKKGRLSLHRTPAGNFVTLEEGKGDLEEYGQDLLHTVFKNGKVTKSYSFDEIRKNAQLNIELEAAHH
- assay protocol: Human recombinant enzyme assay (NMN fluorescence biochemical assay, activation of NAMPT)
- experimental conditions: Table A; human recombinant NAMPT, NMN formation, 60 min; read-out: EC50 Human
- Procedure: Compounds described herein were assayed for their ability to stimulate the synthesis of nicotinamide mononucleotide (NMN) by the enzyme NAMPT. […] Dose responses were measured using an assay to detect the formation of nicotinamide mono-nucleotide. […] The plates were read for fluorescence (Excitation/Emission=355 nm/460 nm) using an EnVision plate reader after 40 mins of incubation at ambient temperature.
Each entry below carries its reported EC50.
Output spec: scalar in µM, unitless text.

Below are worked cases with known answers.
molecule	assay value
COc1ccc(CNC(=O)NC2CC3(C2)CC(C(=O)NCC(C)(C)c2cccnc2)C3)cc1 (centres unmarked)	37.8
O=C(NCc1cn[nH]c1)NC1CC2(C1)CC(NC(=O)c1ccccc1)C2 (centres unmarked)	50.5
CN(C(=O)CCCCCNC(=O)NCc1ccc(Cl)cc1)c1ccccc1	0.5
COc1ccc(CNC(=O)NC2CC3(C2)CC(C(=O)N2CCN(C(=O)c4ccccc4)CC2)C3)cc1 (centres unmarked)	23.6
Cc1ccc(C(=O)NCCCCCNC(=O)NCc2ccc(Cl)cc2)cn1	3.9

Need EC50 of COc1ccc(CNC(=O)NC2CC3(C2)CC(C(=O)N2CCN(C)CC2CO)C3)cc1 (centres unmarked) , thanks.
51.6

Please look up its EC50: O=C(NCc1ccc(Cl)cc1)NC1CC2(CC(CS(=O)(=O)c3cccnc3)C2)C1 (centres unmarked)
16.9

Report EC50 for COc1ccc(CNC(=O)NC2CC3(C2)CC(C(=O)NCC(C)(C)c2ccccn2)C3)cc1 (centres unmarked) please.
50

###

- tested target: human NAMPT (Homo sapiens)
- assay protocol: Human recombinant enzyme assay (NMN fluorescence biochemical assay, activation of NAMPT)
- experimental conditions: Table A; human recombinant NAMPT, NMN formation, 60 min; read-out: EC50 Human
assay readout: pEC50
Kindly note that pEC50 refers to -log10 of the concentration in mol/L and answer with the value alone.

# example entries with known answers
compound	assay value
COc1ccc(CNC(=O)NC2CC3(CC(Cc4ccc(C)cc4)C3)C2)cc1 (centres unmarked)	5.57
CC(C)(C)OC(=O)N1CCC2(CC1)CC2CNC(=O)NCc1ccc(CO)cc1 (centres unmarked)	4.57
COc1ccc(CNC(=O)NC2CC3(C2)CC(C(=O)N2CCCc4ccc(F)c(F)c42)C3)cc1 (centres unmarked)	4.48
CC(C1CC2(CC(NC(=O)NCc3ccc(Cl)cc3)C2)C1)N1CCN(C)C(=O)C1 (centres unmarked)	5.26
O=C(NCc1ccncc1)NC1CC2(C1)CC(NC(=O)c1ccccc1)C2 (centres unmarked)	4.75

Which pEC50 value is on record for Cc1ccc(C(=O)NCC2CC3(C2)CC(NC(=O)NCc2ccc(Cl)cc2)C3)cn1 (centres unmarked) ?
5.52

Need pEC50 of `NC(=O)c1ccc(CNC(=O)NC2CC3(C2)CN(C(=O)c2ccc(Cl)cc2)C3)cc1` , thanks.
4.32

I'd like to know its pEC50. The compound in question is `CC(C)(C)OC(=O)N1CC[C@]2(C1)C[C@H](NC(=O)NCc1ccc(Cl)cc1)C2`
4.42

###

Listed below: log10 EC50 values for each entry.
- tested target: human NAMPT (Homo sapiens, UniProt P43490)
- assay protocol: Human recombinant enzyme assay (NMN fluorescence biochemical assay, activation of NAMPT)
- experimental conditions: Table A; human recombinant NAMPT, NMN formation, 60 min; read-out: EC50 Human
- Procedure: Compounds described herein were assayed for their ability to stimulate the synthesis of nicotinamide mononucleotide (NMN) by the enzyme NAMPT. […] Dose responses were measured using an assay to detect the formation of nicotinamide mono-nucleotide. […] The plates were read for fluorescence (Excitation/Emission=355 nm/460 nm) using an EnVision plate reader after 40 mins of incubation at ambient temperature.
// stored as log10 of EC50 expressed in µM

Worked set:
compound	log10 EC50
COc1ccc(CNC(=O)NC2CC3(C2)CC(C(=O)NCc2ccccn2)C3)cc1 (centres unmarked)	1.68
COc1ccc(CNC(=O)NC2CC3(CC(Cc4cccc(C)c4)C3)C2)cc1 (centres unmarked)	0.34
COc1ccc(CNC(=O)NC2CC3(C2)CN(C(=O)c2cccc(C(C)(C)C)c2)C3)cc1	1.47
COc1ccc(CNC(=O)NC2CC3(C2)CC(C(=O)N2CCOc4ccccc42)C3)cc1 (centres unmarked)	0.20
O=C(NCc1ccc(Cl)cc1)NC1CC2(CC(CS(=O)(=O)c3ccccc3)C2)C1 (centres unmarked)	0.90

Please tell me: log10 EC50 of COc1ccc(CNC(=O)NC2CC3(C2)CC(C(=O)N2CCCc4ccc(C)cc42)C3)cc1 (centres unmarked) , system human NAMPT (Homo sapiens, UniProt P43490)?
0.15

Identify the measured log10 EC50 of `Cc1ccc(C(=O)N2CC3(CC(NC(=O)NCc4ccncc4)C3)C2)cc1` for human NAMPT (Homo sapiens, UniProt P43490).
1.70

Write down the reported log10 EC50 of Cc1ccc(C(=O)NC(C)C2CC3(CC(NC(=O)NCc4ccc(Cl)cc4)C3)C2)cn1 (centres unmarked) , test system: human NAMPT (Homo sapiens, UniProt P43490).
0.81

###

Catalogue of EC50 values
- tested target: human NAMPT (Homo sapiens)
- assay protocol: Human recombinant enzyme assay (NMN fluorescence biochemical assay, activation of NAMPT)
- experimental conditions: Table A; human recombinant NAMPT, NMN formation, 60 min; read-out: EC50 Human
Write down the numeric answer in µM and omit the unit.

// known answers, use as guide
compound	assay value
COc1ccc(CNC(=O)NC2CC3(C2)CC(C(=O)N(C)[C@@H](C)c2ccccc2F)C3)cc1 (some centres unmarked)	6.1
COC(=O)C1CC2(CC(NC(=O)NCc3ccc(OC)cc3)C2)C1 (centres unmarked)	40.2
CN1CC(C(=O)N2CCC(CCCCNC(=O)NCc3ccc(Cl)cc3)CC2)CC1=O (centres unmarked)	10.6
CC(C)(O)CN1CCN(C(=O)CCCCCNC(=O)NCc2ccc(Cl)cc2)CC1	42.9
COc1ccc(CNC(=O)NC2CC3(C2)CN(C(=O)c2cccc(OC)c2)C3)cc1	21.9

Look up EC50: COc1ccc(CNC(=O)NC2CC3(C2)CC(C(=O)NCc2ccncc2)C3)cc1 (centres unmarked)
32.8

Field request: EC50 | item: `COc1ccc(CNC(=O)NC2CC3(C2)CN(C(=O)c2ccc(C)nc2)C3)cc1`
43.2

Which EC50 is reported for this compound? `O=C(NCc1ccc(Cl)cc1)N[C@H]1C[C@]2(CCN(C(=O)c3ccc(F)cc3)C2)C1`
27.5

###

- tested target: human NAMPT (Homo sapiens)
- assay protocol: Human recombinant enzyme assay (NMN fluorescence biochemical assay, activation of NAMPT)
- experimental conditions: Table A; human recombinant NAMPT, NMN formation, 60 min
assay readout: AC1.4 Human (µM)
Just the number in µM, nothing appended.

molecule	AC1.4 Human / µM
Cn1cc(C(=O)N2CCC(CCCCNC(=O)NCc3ccc(Cl)cc3)CC2)nn1	1.5

Look up AC1.4 Human: `COc1ccc(CNC(=O)NC2CC3(C2)CN(C(=O)C(C)(C)c2cccc(C)c2)C3)cc1`
2.1

Return reported AC1.4 Human; argument: `COc1ccc(CNC(=O)NC2CC3(C2)CN(C(=O)c2ccccc2)C3)cc1`
4.7

Reported AC1.4 Human, molecule O=C1CC(C(=O)N2CCC(CCCCNC(=O)NCc3ccc(Cl)cc3)CC2)CN1 (stereo not drawn) : ____
2.6

Any idea what AC1.4 Human was measured for COc1ccc(CNC(=O)NC2CC3(C2)CC(C(=O)NC2CCCc4ccccc42)C3)cc1 (stereo in doubt) ?
8.5

Quick one: AC1.4 Human of O=C(Cc1ccccc1)NC1CC2(C1)CC(NC(=O)NCc1ccc(Cl)cc1)C2 (stereo not drawn) ?
10.2

###

- tested target: human NAMPT (Homo sapiens)
- assay protocol: Human recombinant enzyme assay (NMN fluorescence biochemical assay, activation of NAMPT)
- experimental conditions: Table A; human recombinant NAMPT, NMN formation, 60 min; read-out: EC50 Human
assay readout: EC50 (µM)
Reply numerically in µM, unit not repeated.

molecule	assay readout	assay value
COc1ccc(CNC(=O)NC2CC3(C2)CC(C(=O)N2CCC[C@@H]2c2cccnc2)C3)cc1 (stereo partly shown) [Compound 59]	EC50	40.5
COc1ccc(CNC(=O)NC2CC3(C2)CC(C(=O)NC2CCCc4ccccc42)C3)cc1 (stereo in doubt) [Compound 100]	EC50	10.3
O=C(CCCCCNC(=O)NCc1ccc(Cl)cc1)Nc1ccncc1 [Compound 263]	EC50	10.2

# query: EC50 of entry CC(C)(C)OC(=O)NC1CC2(CC(NC(=O)NCc3ccc(Cl)cc3)C2)C1 (racemic) [Compound 8]
5.1
